- MEASURED ON: human CYP11B2 (Homo sapiens, UniProt P19099)
- Construct: The expression plasmids contains the ORF for either human/cyno CYP11B1 or CYP11B2
- Sequence (P19099 25-503): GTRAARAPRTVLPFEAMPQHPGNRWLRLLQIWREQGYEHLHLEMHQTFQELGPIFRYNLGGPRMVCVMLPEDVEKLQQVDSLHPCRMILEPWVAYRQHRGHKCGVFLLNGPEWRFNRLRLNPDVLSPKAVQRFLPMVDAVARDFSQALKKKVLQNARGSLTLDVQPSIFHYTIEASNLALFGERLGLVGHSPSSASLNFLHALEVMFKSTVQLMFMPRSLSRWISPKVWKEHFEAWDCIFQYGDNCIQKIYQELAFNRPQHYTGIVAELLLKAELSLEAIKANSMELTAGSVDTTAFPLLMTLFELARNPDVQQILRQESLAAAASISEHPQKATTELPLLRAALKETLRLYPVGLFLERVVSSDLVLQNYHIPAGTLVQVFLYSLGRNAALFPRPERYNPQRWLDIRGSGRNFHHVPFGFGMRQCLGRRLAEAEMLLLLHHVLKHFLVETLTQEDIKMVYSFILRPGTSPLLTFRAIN
- METHOD NOTES: G-402 cellular enzyme assay, human CYP11B2 (aldosterone release, HTRF)
- ASSAY CONDITIONS: G-402 cells expressing human CYP11B2; 1 μM Deoxycorticosterone
Catalogue of pEC50 values
In plain terms, pEC50 is the concentration in mol/L turned into minus its base-10 logarithm.

Worked cases, answers included:
INSERT INTO assay_data (molecule, measured_result) VALUES
  ('Cc1ccncc1C(=O)N1CCC(c2cncc(N3C(=O)c4ccc(Cl)cc4[C@@H]3C)c2)CC1 (single isomer, unassigned)', 8.05),
  ('COc1ccc2c(n1)C(C)(C)N(c1cncc(C3(F)CCN(C(=O)c4nccn4C)CC3)c1)C2=O', 8.40),
  ('CCS(=O)(=O)N1CCC(c2cncc(N3C(=O)c4ccc(Cl)cc4C3(C)C)c2)CC1', 8.70);

input: What measured pEC50 goes with CCCS(=O)(=O)N1CCC(c2cncc(N3C(=O)c4ccc(Cl)cc4C3(C)C)c2)C1 (single isomer, unassigned; (+)) [Example 8] ?
output: 8.40

input: Next: COc1ccc2c(n1)C(C)(C)N(c1cncc(C3(F)CCN(S(=O)(=O)C4CC4)CC3)c1)C2=O
output: 7.52

input: Next: CCCS(=O)(=O)N1CCC(F)(c2cncc(N3C(=O)c4ccc(OC)nc4C3(C)C)c2)CC1
output: 7.68

input: Next: CC(C)S(=O)(=O)N1CCC(F)(c2cncc(N3C(=O)c4ccc(C#N)cc4C3(C)C)c2)CC1
output: 8.05

* * *

- MEASURED ON: human CYP11B1 (Homo sapiens, UniProt P15538)
- Construct: The expression plasmids contains the ORF for either human/cyno CYP11B1 or CYP11B2
- Sequence (P15538 25-503): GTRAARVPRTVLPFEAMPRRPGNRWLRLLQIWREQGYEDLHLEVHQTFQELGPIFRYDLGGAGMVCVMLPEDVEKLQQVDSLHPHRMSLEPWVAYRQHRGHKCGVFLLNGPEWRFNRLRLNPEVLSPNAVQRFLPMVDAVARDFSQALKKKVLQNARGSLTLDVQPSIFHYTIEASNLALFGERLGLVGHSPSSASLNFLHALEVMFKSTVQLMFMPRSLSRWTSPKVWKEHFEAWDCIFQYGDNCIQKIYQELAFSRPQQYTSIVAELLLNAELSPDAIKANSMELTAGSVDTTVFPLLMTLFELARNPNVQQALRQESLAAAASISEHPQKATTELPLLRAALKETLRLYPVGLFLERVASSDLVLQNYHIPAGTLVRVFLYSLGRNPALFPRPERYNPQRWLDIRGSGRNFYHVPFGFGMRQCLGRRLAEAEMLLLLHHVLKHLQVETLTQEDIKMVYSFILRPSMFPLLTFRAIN
- METHOD NOTES: G-402 cellular enzyme assay, human CYP11B1 (cortisol release, HTRF)
- ASSAY CONDITIONS: G-402 cells expressing human CYP11B1; 1 μM Deoxycortisol
Catalogue of EC50 values
The figure you give is taken to be in nM; do not add the unit.

INSERT INTO measurements (structure, measured_on, measured_result) VALUES
  ('CC1(C)c2cc(Cl)ccc2C(=O)N1c1cncc(C2CCN(C(=O)c3ccncc3Cl)CC2)c1', 'human CYP11B1 (Homo sapiens, UniProt P15538)', 1340),
  ('COc1ccc2c(n1)C(C)(C)N(c1cncc(C3(F)CCN(S(=O)(=O)C(C)C)CC3)c1)C2=O', 'human CYP11B1 (Homo sapiens, UniProt P15538)', 8070),
  ('CCCS(=O)(=O)N1CCC(c2cncc(N3C(=O)c4ccc(Cl)cc4C3(C)C)c2)CC1', 'human CYP11B1 (Homo sapiens, UniProt P15538)', 239);

Could you now consider this next molecule?
input: What measured EC50 goes with CC1(C)c2cc(Cl)ccc2C(=O)N1c1cncc(C2CCN(S(C)(=O)=O)CC2)c1 ?
output: 53

* * *

Catalogue of pEC50 values
- MEASURED ON: human CYP11B2 (Homo sapiens, UniProt P19099)
- Construct: The expression plasmids contains the ORF for either human/cyno CYP11B1 or CYP11B2
- METHOD NOTES: G-402 cellular enzyme assay, human CYP11B2 (aldosterone release, HTRF)
- ASSAY CONDITIONS: G-402 cells expressing human CYP11B2; 1 μM Deoxycorticosterone
In plain terms, pEC50 is the concentration in mol/L turned into minus its base-10 logarithm.

input: What measured pEC50 goes with CCS(=O)(=O)N1CCC(c2cncc(N3C(=O)c4ccc(OC)nc4C3(C)C)c2)CC1 ?
output: 7.64

input: Next: CC1(C)c2cc(Cl)ccc2C(=O)N1c1cncc(C2CCN(S(=O)(=O)C3CC3)C2)c1 (single isomer, unassigned; (-)) [Example 13]
output: 7.72

input: Next: CC(=O)N1CC(c2cncc(N3C(=O)c4ccc(Cl)cc4C3(C)C)c2)C1
output: 6.83

input: Next: CCCS(=O)(=O)N1CCC(F)(c2cncc(N3C(=O)c4ccc(Cl)cc4C3(C)C)c2)CC1
output: 8.70

input: Next: CC(C)S(=O)(=O)N1CCC(c2cncc(N3Cc4cc(Cl)ccc4C3=O)c2)CC1
output: 7.08

input: Next: CC1(C)c2cc(Cl)ccc2C(=O)N1c1cncc(C2CCN(S(=O)(=O)C3CC3)C2)c1 (single isomer, unassigned; (+)) [Example 12]
output: 8.70

input: Next: CC(C)S(=O)(=O)N1CCC(c2cncc(N3C(=O)c4ccc(Cl)cc4C3(C)C)c2)C1 (single isomer, unassigned; (+)) [Example 10]
output: 8.70

* * *

- MEASURED ON: human CYP11B1 (Homo sapiens, UniProt P15538)
- Construct: The expression plasmids contains the ORF for either human/cyno CYP11B1 or CYP11B2
- METHOD NOTES: G-402 cellular enzyme assay, human CYP11B1 (cortisol release, HTRF)
- ASSAY CONDITIONS: G-402 cells expressing human CYP11B1; 1 μM Deoxycortisol
pEC50: −log10 of the molar value.
Would you please tag the item YES when its pEC50 is 6 or above, and NO when it is below?

INSERT INTO results (molecule, measured_on, label_class) VALUES
  ('CC1(C)c2cc(Cl)ccc2C(=O)N1c1cncc(C2(F)CCN(S(=O)(=O)C3CC3)CC2)c1', 'human CYP11B1 (Homo sapiens, UniProt P15538)', 'YES'),
  ('CC(=O)N1CC(c2cncc(N3C(=O)c4ccc(Cl)cc4C3(C)C)c2)C1', 'human CYP11B1 (Homo sapiens, UniProt P15538)', 'NO'),
  ('CC(C)S(=O)(=O)N1CCC(c2cncc(N3C(=O)c4ccc(Cl)cc4[C@@H]3C)c2)CC1 (single isomer, unassigned)', 'human CYP11B1 (Homo sapiens, UniProt P15538)', 'YES'),
  ('Cc1ccncc1C(=O)N1CCC(c2cncc(N3C(=O)c4ccc(Cl)cc4[C@@H]3C)c2)CC1 (single isomer, unassigned)', 'human CYP11B1 (Homo sapiens, UniProt P15538)', 'YES'),
  ('CCS(=O)(=O)N1CCC(c2cncc(N3C(=O)c4ccc(OC)nc4C3(C)C)c2)CC1', 'human CYP11B1 (Homo sapiens, UniProt P15538)', 'NO');

input: Is pEC50 for CCS(=O)(=O)N1CCC(c2cncc(N3C(=O)c4ccc(Cl)cc4C3(C)C)c2)C1 (stereo not shown) at or above 6?
output: YES

* * *

- MEASURED ON: human CYP11B2 (Homo sapiens)
- Construct: The expression plasmids contains the ORF for either human/cyno CYP11B1 or CYP11B2
- METHOD NOTES: G-402 cellular enzyme assay, human CYP11B2 (aldosterone release, HTRF)
- ASSAY CONDITIONS: G-402 cells expressing human CYP11B2; 1 μM Deoxycorticosterone
Criterion: EC50 strictly less than 4 nM. Met: yes (1). Not met: no (0).

INSERT INTO results (structure, label_class) VALUES
  ('CCCS(=O)(=O)N1CCC(c2cncc(N3C(=O)c4ccc(Cl)cc4C3(C)C)c2)CC1', 'yes (1)');

input: API: query returns whether the compound falls strictly under 4 nM in EC50. Query: CC1(C)c2cc(Cl)ccc2C(=O)N1c1cncc(C2CN(S(=O)(=O)C3CC3)C2)c1
output: no (0)

input: Next: CC(C)S(=O)(=O)N1CCC(F)(c2cncc(N3C(=O)c4ccc(Cl)cc4C3(C)C)c2)CC1
output: yes (1)

input: Next: CCS(=O)(=O)N1CCC(c2cncc(N3Cc4cc(Cl)ccc4C3=O)c2)CC1
output: no (0)

* * *

- MEASURED ON: human CYP11B2 (Homo sapiens, UniProt P19099)
- Construct: The expression plasmids contains the ORF for either human/cyno CYP11B1 or CYP11B2; expressed in transfected cells
- METHOD NOTES: G-402 cellular enzyme assay, human CYP11B2 (aldosterone release, HTRF)
- Assay type: cell-based
- ASSAY CONDITIONS: G-402 cells expressing human CYP11B2; 1 μM Deoxycorticosterone
Catalogue of EC50 values
The figure you give is taken to be in nM; do not add the unit.

INSERT INTO measurements (molecule, measured_result) VALUES
  ('Cc1ccncc1C(=O)N1CCC(c2cncc(N3C(=O)c4ccc(Cl)cc4[C@H]3C)c2)CC1 (single isomer, unassigned) [Example 28]', 4),
  ('CC1(C)c2cc(Cl)ccc2C(=O)N1c1cncc(C2CCCN(S(C)(=O)=O)C2)c1 (single isomer, unassigned; (-)) [Example 6]', 15),
  ('CC(C)S(=O)(=O)N1CCC(c2cncc(N3C(=O)c4ccc(Cl)cc4[C@H]3C)c2)CC1 (single isomer, unassigned) [Example 26]', 11),
  ('CC1(C)c2cc(Cl)ccc2C(=O)N1c1cncc(C2CCN(S(C)(=O)=O)CC2)c1 [Example 3]', 2),
  ('CC1(C)c2cc(Cl)ccc2C(=O)N1c1cncc(C2CCCN(S(C)(=O)=O)C2)c1 (single isomer, unassigned; (+)) [Example 5]', 5);

input: // fetch human CYP11B2 (Homo sapiens, UniProt P19099) EC50 for CCS(=O)(=O)N1CCC(c2cncc(N3C(=O)c4ccc(Cl)cc4[C@@H]3C)c2)CC1 (single isomer, unassigned) [Example 25]
output: 2

input: Next: CCCS(=O)(=O)N1CC(c2cncc(N3C(=O)c4ccc(Cl)cc4C3(C)C)c2)C1 [Example 34]
output: 13

input: Next: CCS(=O)(=O)N1CCC(c2cncc(N3C(=O)c4ccc(Cl)cc4[C@H]3C)c2)CC1 (single isomer, unassigned) [Example 24]
output: 2

input: Next: CCS(=O)(=O)N1CCC(F)(c2cncc(N3C(=O)c4ccc(Cl)cc4C3(C)C)c2)CC1 [Example 30]
output: 1

input: Next: CCS(=O)(=O)N1CCC(c2cncc(N3C(=O)c4ccc(Cl)cc4C3(C)C)c2)C1 (centres unmarked) [Example 7]
output: 2

input: Next: CCS(=O)(=O)N1CCCC(c2cncc(N3C(=O)c4ccc(Cl)cc4C3(C)C)c2)C1 (centres unmarked) [Example 4]
output: 6

Measured values drawn from patent US9505742B2 for this set.
